These measurements were taken from the NIST ThermoML archive (doi:10.1021/je400140n).

- assay summary: molar heat capacity at constant pressure
- measurement parameters: 344.2 K; 101.33 kPa; Liquid; Small sample (50 mg) DSC
Each entry below carries its reported molar heat capacity at constant pressure.
reported property: molar heat capacity at constant pressure (J/K/mol)

>  <compound>
CCn1cc[n+](C)c1.N#C[C-](C#N)C#N [1-ethyl-3-methyl-1H-imidazolium tricyanomethanide]

>  <reported property>
molar heat capacity at constant pressure

>  <unit label>
J/K/mol

>  <reported result>
381.73

$$$$
>  <compound>
CCCCn1cc[n+](C)c1.N#CN=C=[N-] [1-butyl-3-methylimidazolium dicyanamide]

>  <reported property>
molar heat capacity at constant pressure

>  <unit label>
J/K/mol

>  <reported result>
383.63

$$$$
>  <compound>
CCn1cc[n+](C)c1.N#C[S-] [1-ethyl-3-methylimidazolium thiocyanate]

>  <reported property>
molar heat capacity at constant pressure

>  <unit label>
J/K/mol

>  <reported result>
303.12

$$$$
